procedure details: Solution stability (HPLC, extracellular solution, ambient temperature)
Assay type: physicochemical
cond: percentage of degradation after 6 h at ambient temperature; 100 ppm in extracellular solution pH 7.4
observable: Solution stability

Please review the following examples before continuing.
1. CC(C)CS(=O)(=O)Nc1ccc2c(c1)CCN2Cc1ccc(F)cc1 :: C (degradation > 40%)
2. O=S(=O)(Nc1ccc2c(c1)CCN2Cc1ccc(F)c(F)c1)C1CCCCC1 :: C (degradation > 40%)
3. CC1(C)[C@@H]2CC[C@@]1(CS(=O)(=O)Nc1ccc3c(c1)CCN3Cc1ccc(F)cc1)C(=O)C2 :: C (degradation > 40%)
4. O=[N+]([O-])c1cc(Br)ccc1CN1CCc2cc(NS(=O)(=O)C3CCCCC3)ccc21 :: B (20%< degradation<40%)
5. CCCCS(=O)(=O)Nc1ccc2c(c1)CCN2Cc1ccc(F)cc1 :: C (degradation > 40%)
6. O=S(=O)(Nc1ccc2c(c1)CCN2CCc1ccc(F)cc1)C1CCCCC1 :: C (degradation > 40%)

Fill in: Solution stability of CCCCCCS(=O)(=O)Nc1ccc2c(c1)CCN2Cc1ccc(F)cc1 is ___
B (20%< degradation<40%)

Fill in: Solution stability of O=S(=O)(Nc1ccc2c(c1)CCN2Cc1ccc(F)cc1)C1CCCCC1 is ___
C (degradation > 40%)

Fill in: Solution stability of CC1CC(C)CN(S(=O)(=O)Nc2ccc3c(c2)CCN3Cc2ccc(F)cc2)C1 (stereo not drawn) is ___
B (20%< degradation<40%)

Fill in: Solution stability of O=S(=O)(Nc1ccc2c(c1)CCN2Cc1ccc(C(F)(F)F)cc1)C1CCCCC1 is ___
C (degradation > 40%)

Fill in: Solution stability of COc1ccc(CN(C)c2ccc(NS(=O)(=O)C3CCCCC3)cc2)cc1 is ___
B (20%< degradation<40%)

Fill in: Solution stability of O=S(=O)(Nc1ccc2c(c1)CCN2Cc1ccc(F)cc1F)C1CCCCC1 is ___
C (degradation > 40%)

Fill in: Solution stability of COc1ccc(CNc2ccc(NS(=O)(=O)C3CCCCC3)cc2)cc1 is ___
B (20%< degradation<40%)

Fill in: Solution stability of COc1ccc([C@H](C)Nc2ccc(NS(=O)(=O)C3CCCCC3)cc2)cc1 is ___
B (20%< degradation<40%)

Fill in: Solution stability of CCc1cccc(S(=O)(=O)Nc2ccc(NCc3ccc(OC)cc3)cc2)c1 is ___
B (20%< degradation<40%)

* * *

procedure details: Photostability (HPLC, solar simulator irradiation)
Assay type: physicochemical
cond: percentage of degradation after 6 h irradiation with solar simulator; 100 ppm in extracellular solution pH 7.4
observable: Photostability

1) O=S(=O)(Nc1ccc2c(c1)CCN2Cc1ccc(F)cc1)N1CCCCCC1 :: B (20%< degradation<40%)
2) O=S(=O)(Nc1ccc2c(c1)CCN2CCc1ccc(F)cc1)C1CCCCC1 :: C (degradation > 40%)
3) O=S(=O)(Nc1ccc2c(c1)CCN2Cc1ccc(F)cc1F)C1CCCCC1 :: C (degradation > 40%)
4) O=C(Cc1ccc(Cl)cc1)N1CCc2cc(NS(=O)(=O)C3CCCCC3)ccc21 :: B (20%< degradation<40%)

* * *

procedure details: Photostability (HPLC, solar simulator irradiation)
Assay type: physicochemical
cond: percentage of degradation after 6 h irradiation with solar simulator; 100 ppm in extracellular solution pH 7.4
observable: Photostability

Please review the following examples before continuing.
1. O=C(Nc1ccc2c(c1)CCN2Cc1ccc(F)cc1)C1CCCCC1 :: B (20%< degradation<40%)
2. O=S(=O)(Nc1ccc2c(c1)CCN2Cc1ccc(C(F)(F)F)cc1C(F)(F)F)C1CCCCC1 :: C (degradation > 40%)
3. O=C(Nc1ccc2c(c1)CCN2Cc1ccc(F)cc1)NC1CCCCC1 :: B (20%< degradation<40%)
4. COc1ccc([C@@H](C)Nc2ccc(NS(=O)(=O)C3CCCCC3)cc2)cc1 :: C (degradation > 40%)

# next molecule below
Fill in: Photostability of COc1ccc(CN2CCc3cc(NS(=O)(=O)C4CCCCC4)ccc32)cc1 is ___
C (degradation > 40%)

* * *

assay system: Kv7.2 (Homo sapiens)
Construct: expressed in transfected cells; host or cells: CHO cells (ATCC CRL-9618), transient transfection, pcDNA3.1(+)
procedure details: Whole-cell patch-clamp on CHO cells transiently expressing Kv7.2
Type: cell-based
cond: ratio of ramp-evoked Kv7.2 current amplitude in presence and absence of drug at 0 mV; CHO cells; mean±SEM; >1 activating, <1 inhibiting
Threshold rule: Idrug/Ictl at 0 mV greater than or equal to 2 is satisfied; below that, not satisfied.

Record excerpt, results attached:
1) CC1(C)[C@@H]2CC[C@@]1(CS(=O)(=O)Nc1ccc3c(c1)CCN3Cc1ccc(F)cc1)C(=O)C2 :: not satisfied
2) COCCOCCC(=O)Nc1ccc2c(ccn2Cc2ccc(C(F)(F)F)cc2)c1 :: not satisfied
3) CC1CC(C)CN(S(=O)(=O)Nc2ccc3c(c2)CCN3Cc2ccc(F)cc2)C1 (stereo not drawn) :: not satisfied

Evaluate CCCCCCC(=O)Nc1ccc2c(ccn2Cc2ccc(C(F)(F)F)cc2)c1 : Idrug/Ictl at 0 mV at minimum 2?
satisfied

Evaluate CC(=O)Nc1ccc2c(c1)CCN2Cc1ccc(F)cc1 : Idrug/Ictl at 0 mV at minimum 2?
not satisfied

Evaluate COc1ccc(Cn2ccc3cc(NS(=O)(=O)C4CCCCC4)ccc32)cc1 : Idrug/Ictl at 0 mV at minimum 2?
not satisfied

* * *

procedure details: Photostability (HPLC, solar simulator irradiation)
Assay type: physicochemical
cond: percentage of degradation after 6 h irradiation with solar simulator; 100 ppm in extracellular solution pH 7.4
observable: Photostability

Please review the following examples before continuing.
1) CC1CC(C)CN(S(=O)(=O)Nc2ccc3c(c2)CCN3Cc2ccc(F)cc2)C1 (stereo not shown) :: B (20%< degradation<40%)
2) Nc1cc(NCc2ccc(C(F)(F)F)cc2)ccc1NS(=O)(=O)C1CCCCC1 :: C (degradation > 40%)
3) CC(C)(C)CNC(=N)Nc1ccc2c(c1)CCN2Cc1ccc(F)cc1 :: B (20%< degradation<40%)
4) CC1(C)[C@H]2CC[C@]1(CS(=O)(=O)Nc1ccc3c(c1)CCN3Cc1ccc(F)cc1)C(=O)C2 :: C (degradation > 40%)
5) O=C(Cn1ccc2cc(NS(=O)(=O)CC3CCCCC3)ccc21)c1ccc(Br)cc1 :: B (20%< degradation<40%)

Fill in: Photostability of CCCCCCC(=O)Nc1ccc(NCc2ccc(OC(F)(F)F)cc2)cc1N is ___
B (20%< degradation<40%)

Fill in: Photostability of O=S(=O)(Nc1ccc2c(c1)CCN2Cc1ccc(F)c(F)c1)C1CCCCC1 is ___
C (degradation > 40%)

* * *

procedure details: Solution stability (HPLC, extracellular solution, ambient temperature)
Format: physicochemical
cond: percentage of degradation after 6 h at ambient temperature; 100 ppm in extracellular solution pH 7.4
Procedure: In order to study the solution stability and photostability of the potassium channel modulators object of the present invention, a stock solution of the proper analyte (1 mg/mL) in dimethylsulfoxide (DMSO) has been prepared. […] Aliquots of solution have been withdrawn after 6h and analyzed by HPLC using a Kinetex C18, 150 mm × 4.6 mm × 2.6 µm (Phenomenex, Bologna, Italy) as stationary phase and a mobile phase constituted by A: H2O/CH3CN (80:20) and B: CH3CN. […]
observable: Solution stability

1. CN1CCN(S(=O)(=O)Nc2ccc3c(c2)CCN3Cc2ccc(F)cc2)CC1 :: B (20%< degradation<40%)
2. COc1ccc([C@@H](C)Nc2ccc(NS(=O)(=O)C3CCCCC3)cc2)cc1 :: B (20%< degradation<40%)
3. COc1ccc(CN2c3ccc(NS(=O)(=O)C4CCCCC4)cc3CC2C)cc1 (centres unmarked) :: B (20%< degradation<40%)

* * *

# pEC50 annotations
assay system: Kv7.3 (Homo sapiens)
procedure details: Whole-cell patch-clamp on CHO cells transiently expressing Kv7.3
cond: shift in ramp-voltage (ΔV) at 20% of maximal current, 0.01-10 µM
Procedure: According to the experimental protocol, these plasmids were expressed individually or in combination (in particular of Kv7.2 and Kv7.3), together with a plasmid-expressing enhanced green fluorescent protein (Clontech, Palo Alto, CA) used as a transfection marker. […] Currents from CHO cells were recorded at room temperature (20-22°C) 24 hours after trasfection using the whole-cell configuration of the patch-clamp technique, with glass micropipettes of 3-5 MΩ resistance. […]
pEC50 here is simply -log10 of the concentration when that concentration is written in mol/L.

1. CCCCCCC(=O)Nc1ccc2c(ccn2Cc2ccc(C(F)(F)F)cc2)c1 :: 4.98

Fill in: pEC50 of CCOC(=O)Nc1ccc(NCc2ccc(F)cc2)cc1N [Retigabine, reference compound] is ___
5.41
